Details: 298.15 K; 101 kPa; Liquid; Pycnometric method
endpoint: mass density (kg/m3)
Lab book: enter the figure in kg/m3, no units written.

Answered cases to consult:
1) CCCOC(C)=O [propyl ethanoate]	883
2) COC(C)=O [methyl ethanoate]	926.8
3) O=C1CCCCC1	941.6
4) C1CCCCC1	773.8

Next compound, mass density to be filled in.
Query block: Look up mass density: CCOC(C)=O [ethyl acetate]
Result block: 894.5

====

Conditions: 298.15 K; 101 kPa; Liquid; Capillary tube (Ostwald / Ubbelohde) method
Known viscosity of a selection of compounds
Lab book: enter the figure in mPa·s, no units written.

Answered cases to consult:
1. CCOC(C)=O [ethyl acetate]	0.426
2. COC(C)=O [methyl ethanoate]	0.38
3. CCCOC(C)=O [propyl ethanoate]	0.551
4. C1CCCCC1	0.892

Query block: Look up viscosity: O=C1CCCCC1
Result block: 2.02

These entries and their values trace back to the NIST ThermoML archive (doi:10.1021/je8007217).
